// provenance: patent EP4603105A1

Molecular target: GDP-bound KRAS wild-type protein (Homo sapiens)
Sequence (P01116 1-188 isoform P01116-2): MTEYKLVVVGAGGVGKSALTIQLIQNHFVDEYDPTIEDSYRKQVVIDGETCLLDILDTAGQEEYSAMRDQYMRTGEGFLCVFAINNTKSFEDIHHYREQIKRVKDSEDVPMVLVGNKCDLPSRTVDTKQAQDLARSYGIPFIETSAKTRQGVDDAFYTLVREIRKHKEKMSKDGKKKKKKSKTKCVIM
Test: Binding to KRAS by surface plasmon resonance (SPR), dissociation constant KD
Settings: Single Cycle Kinetics
Listed here are molecules together with their documented Kd.
Value expressed in nM; do not type the unit.

Below: 2 molecules and their reported Kd.
Q: Value lookup for Kd; key = CCC[C@H]1C(=O)N[C@@H](C2CCCC2)C(=O)N(C)CC(=O)N(C)[C@H]2C/C=C\CCN(C2=O)[C@@H](Cc2ccc(C)cc2)C(=O)N(C)CC(=O)N[C@@H](CCc2ccc(C(F)(F)F)c(Cl)c2)C(=O)N2CC3(CC3)C[C@H]2C(=O)NC2(CCC2)C(=O)N(C)[C@@H](C2CCCC2)C(=O)N(C)[C@H](C(=O)N(C)C)CC(=O)N1C [PP3444]
Result: 0.19

Q: Value lookup for Kd; key = CCC[C@H]1C(=O)N[C@@H]([C@@H](C)CC)C(=O)N(C)CC(=O)N(C)[C@H]2C/C=C\CCN(C2=O)[C@@H](Cc2ccc(C)cc2)C(=O)N(C)CC(=O)N[C@@H](CCc2ccc(C(F)(F)F)c(OC)c2)C(=O)N2CC3(CC3)C[C@H]2C(=O)N(C)C2(CCC2)C(=O)N(C)[C@@H]([C@@H](C)CC)C(=O)N(C)[C@H](C(=O)N(C)C)CC(=O)N1C [PP3294]
Result: 0.099

Now look at this entry.
Q: Value lookup for Kd; key = CCC[C@H]1C(=O)N[C@@H]([C@@H](C)CC)C(=O)N(C)CC(=O)N(C)[C@H]2C/C=C\CCN(C2=O)[C@@H](Cc2ccc(C)cc2)C(=O)N(C)CC(=O)N[C@@H](CCc2ccc(C(F)(F)F)c(Cl)c2)C(=O)N2CC[C@H](OC)[C@H]2C(=O)N(C)C2(CCC2)C(=O)N(C)[C@@H](C2CCCC2)C(=O)N(C)[C@H](C(=O)N(C)C)CC(=O)N1C [PP3237]
Result: 0.057
